assay: Cytotoxicity against human MT4 cells assessed as reduction in cell viability incubated for 5 days by MTT assay; assay type: cell-based; conditions: time 5 day
Form field: CC50 at 120 h (one value per entry).
measurement kind: CC50 at 120 h

INSERT INTO assay_data (compound, measured_result) VALUES
  ('Cc1cc(/C=C/C#N)cc(C)c1Oc1nc(Nc2ccc(N3CCCC(NS(C)(=O)=O)C3)cc2)nc2ccsc12 (centres undefined)', '> 217 µM'),
  ('Cc1cc(/C=C/C#N)cc(C)c1Oc1nc(Nc2ccc(CN3CCN(S(N)(=O)=O)CC3)cc2)nc2sccc12', '> 218 µM'),
  ('Cc1cc(/C=C/C#N)cc(C)c1Oc1nc(Nc2ccc(N3CCCC(N)C3)cc2)nc2ccsc12 (centres undefined)', '3.82 µM'),
  ('Cc1cc(/C=C/C#N)cc(C)c1Oc1nc(Nc2ccc(N3CCCC(NS(N)(=O)=O)C3)cc2)nc2ccsc12 (centres undefined)', '> 218 µM');
